Documented IC50 across a set of molecules
Assay: Cytotoxicity against human Hey/Tx100 cells after 72 to 120 hrs by sulforhodamine B assay
Format: functional, cell-based
Reply with a number, then the unit it belongs to.

Worked cases, IC50 given:
CC(=O)O[C@@]1(C2/C(C)=C(/O)C(=O)C3=C(C)[C@@H](OC(=O)[C@H](O)[C@H](C=C(C)C)NC(=O)OC(C)(C)C)C[C@@](O)([C@H]2OC(=O)c2cccc(Cl)c2)C3(C)C)CO[C@H]1CCO (some centres undefined)    28.8 µM
CC(=O)O[C@@]12CO[C@@H]1C[C@H](O)[C@@]1(C)C(=O)[C@H](OC(=O)C3CC3)C3=C(C)[C@@H](OC(=O)[C@H](O)[C@H](C=C(C)C)NC(=O)OC(C)(C)C)C[C@@](O)([C@@H](OC(=O)c4ccccc4)[C@H]21)C3(C)C    2.3 µM
CC(=O)O[C@@]12CO[C@@H]1C[C@H](O)[C@@]1(C)C(=O)[C@H](O)C3=C(C)[C@@H](OC(=O)[C@H](O)[C@@H](NC(=O)OC(C)(C)C)c4ccccc4)C[C@@](O)([C@@H](OC(=O)c4ccccc4)[C@H]21)C3(C)C [DOCETAXEL ANHYDROUS]    41.4 µM

The record that follows has no IC50 shown yet.
Prompt: Entry CC(=O)O[C@H]1C(=O)[C@@]2(C)[C@H]([C@H](OC(=O)c3ccccc3)[C@]3(O)C[C@H](OC(=O)[C@H](O)[C@@H](NC(=O)c4ccccc4)c4ccccc4)C(C)=C1C3(C)C)[C@]1(OC(C)=O)CO[C@@H]1C[C@@H]2O : reported IC50 = ?
Response: 240 µM
